B1: glmS ribozyme (parent)
chain: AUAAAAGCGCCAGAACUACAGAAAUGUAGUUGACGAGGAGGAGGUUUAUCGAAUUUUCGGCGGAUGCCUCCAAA

- Variants of: B1
- assay.info: self-cleavage kobs at 40 uM GlcN6P; higher = faster cleavage; RNA array
- condition.set: with glucosamine-6-phosphate
Variants at the floor of the assay were thinned out.
parameter.measured: self-cleavage kobs at 40 uM GlcN6P

G32C G35U ... < 1e-05 s⁻¹

get_value(item= A6G C8G A33G A48U C58U A64U C70A , readout=self-cleavage kobs at 40 uM GlcN6P) returns 3.84e-05 s⁻¹

Measured self-cleavage kobs at 40 uM GlcN6P of G44U U57A U69A : < 1e-05 s⁻¹
